Origin of the recorded values: the array DNA melting data of Ke et al. (doi:10.1101/2024.01.08.574731)

# test.name: melting temperature; fluorescence melt of hairpins on a sequencing array, two-state fit, raised by 9.35 °C to match UV melts
# experimental.parameters: sodium 0.088 M
Catalogue of Tm readings, one per entry.
Please respond with the number in °C and leave the unit unwritten.

primary.sequence: GGTAGTCCGAAAGGAACC (((..(((....))))))
numeric.readout: 27.1
//
primary.sequence: GGCCTAGGAAACTAAGCC (((.(((....))).)))
numeric.readout: 38.2
//
primary.sequence: GCCTGGCGAAAGCCCAGC ((..(((....)))..))
numeric.readout: 47.3
//
primary.sequence: GTATCGCGAAAGCGGTAC (((.(((....))).)))
numeric.readout: 56.5
//
primary.sequence: GCCTTTGGAAACAAAAGC ((.((((....)))).))
numeric.readout: 29.3

Task: For the sequence shown here, GTGACTGGAAACAATCAC ((((.((....)).)))) , give the reported Tm.
Result: 36

Task: Try this sequence too: GATCTGGATGCAGATC ((((((....))))))
Result: 50.8

Task: Try this sequence too: GACAACGAAAGTTGGTC ((((((....))).)))
Result: 53.1

Task: Try this sequence too: GATCCTTAAAGGATC ((((((...))))))
Result: 51.7

Task: Try this sequence too: GATCTCGTGAGAGATC ((((((....))))))
Result: 66.9

Task: Try this sequence too: GCTACCCCGAAAGGGAGC (((..(((....))))))
Result: 46.9

###

# test.name: folding enthalpy; higher = less favourable; fluorescence melt of hairpins on a sequencing array, two-state fit
# experimental.parameters: sodium 0.088 M
Labels assigned by folding enthalpy range: 0 = under -40 kcal/mol, 1 = from -40 kcal/mol up to -20 kcal/mol, 2 = -20 kcal/mol and over

Before answering, review these 10 worked examples.
primary.sequence: GATCCTGCTCAGGATC ((((((....))))))
group: 0
--
primary.sequence: GGAGTGGCGAAAGCCTCC (((..(((....))))))
group: 2
--
primary.sequence: GCTATTACGAAAGTAAGC (((..(((....))))))
group: 2
--
primary.sequence: GTGTACCGAAAGGTGCAC (((.(((....))).)))
group: 1
--
primary.sequence: GGTGTCGAAAGACTCACC ((((((....)))..)))
group: 2
--
primary.sequence: GATCTGTGAACAGATC ((((((....))))))
group: 0
--
primary.sequence: GGAGGCGGAAACGCCTTC (.(((((....))))).)
group: 2
--
primary.sequence: GATCGCCATCGCGATC ((((((....))))))
group: 1
--
primary.sequence: GCCACGCGAAAGCCAGGC (((..((....))..)))
group: 1
--
primary.sequence: GCACATCGAAAGATATGC (((.(((....))).)))
group: 1

Task: Hi there! Could you help me figure out the category for GCGGCTGGAAACGGCTGC ((.((.(....).)).)) please?
Result: 1

Task: Try this sequence too: GTCTACGAAAGTACGGAC ((((((....)))..)))
Result: 2

Task: Try this sequence too: GATGGCGGAAACACCACC (.(((.(....).))).)
Result: 2
